- Tested on: test plant species in Direct Seeded Rice
- method-description: Postemergence herbicidal activity in direct seeded rice (Table 13)
- Format: in vivo
- details: LEFSS: sprangletop (Leptochloa chinensis, Leptochloa dubia); probit analysis
- Description: Seeds or nutlets of the desired test plant species were planted in a soil matrix prepared by mixing a loam soil (43 percent silt, 19 percent clay, and 38 percent sand, with a pH of about 8.1 and an organic matter content of about 1.5 percent) and river sand in an 80 to 20 ratio. […] A weighed amount, determined by the highest rate to be tested, of each test compound was placed in 25 mL glass vials and dissolved in a volume of 97:3 v/v acetone-DMSO to obtain 12× stock solutions. […]
property: GR80 LEFSS (g ai/ha)
Answer with a number only, understood to be in g ai/ha.

For orientation, consider the following solved cases.
INSERT INTO assay_data (smiles_str, target_of_assay, endpoint_result) VALUES
  ('COC(=O)c1nc(-c2ccc(I)cc2F)cc(N)c1Cl', 'test plant species in Direct Seeded Rice', 19),
  ('COC(=O)c1nc(-c2ccc(I)cc2)c(Cl)c(N)c1Cl', 'test plant species in Direct Seeded Rice', 58),
  ('COC(=O)c1nc(-c2ccc(Br)cc2F)cc(N)c1Cl', 'test plant species in Direct Seeded Rice', 11),
  ('COC(=O)c1nc(-c2ccc(C(F)(F)F)c(F)c2)c(F)c(N)c1Cl', 'test plant species in Direct Seeded Rice', 56);

May I ask what GR80 LEFSS has been recorded for COC(=O)c1nc(-c2ccc(C#N)c(F)c2)c(F)c(N)c1Cl ?
114

====

- Tested on: Key Grass and Sedge Weeds as well as Grass Crops
- method-description: Post-emergent Test II herbicidal activity (Table 6)
- Assay type: in vivo
- details: post-emergence, 336 h, SETFA: giant foxtail (Setaria faberi), 70 g ai/ha, read-out: Visual Growth Reduction (%) 14 Days After Application, SETFA
Each item that follows carries a reported pest or weed control at 70 g/ha.

Examples with answers:
INSERT INTO assay_data (compound, endpoint_result) VALUES
  ('COC(=O)c1nc(-c2cccc(F)c2F)c(F)c(N)c1Cl [Compound 199]', '0 to 29%'),
  ('Nc1c(F)c(-c2ccc(C(F)(F)F)c(F)c2)nc(C(=O)O)c1Cl [Compound 134]', '95 to 100%'),
  ('Nc1c(F)c(-c2ccc(Cl)c(F)c2)nc(C(=O)O)c1Cl [Compound 217]', '95 to 100%'),
  ('COC(=O)c1nc(-c2ccc(OC(F)F)c(F)c2)c(F)c(N)c1Cl [Compound 152]', '0 to 29%');

Consider the additional compound presented here.
Give the reported pest or weed control at 70 g/ha for COC(=O)c1nc(-c2ccc(Br)cc2)cc(N)c1Cl [Compound 67] (system: Key Grass and Sedge Weeds as well as Grass Crops).
0 to 29%

====

- Tested on: Key Broadleaf Weed and Crop Species
- method-description: Post-emergent Test II herbicidal activity (Table 5)
- Type: in vivo
- details: post-emergence, 336 h; AMARE: redroot pigweed (Amaranthus retroflexus); 140 g ai/ha; post-emergent; 14 days after application; read-out: Visual Growth Reduction (%) 14 Days After Application AMARE
Listed compounds paired with reported pest or weed control at 140 g/ha

Past entries and their recorded results:
INSERT INTO results (smiles_str, target_of_assay, property, endpoint_result) VALUES
  ('C=Cc1c(C(=O)O)nc(-c2ccc(I)cc2)c(F)c1N', 'Key Broadleaf Weed and Crop Species', 'pest or weed control at 140 g/ha', '95 to 100%'),
  ('COC(=O)c1nc(-c2c(F)cc(I)c(F)c2F)cc(N)c1Cl', 'Key Broadleaf Weed and Crop Species', 'pest or weed control at 140 g/ha', '95 to 100%'),
  ('COc1c(N)nc(-c2cc(F)c(Br)cc2F)nc1C(=O)O', 'Key Broadleaf Weed and Crop Species', 'pest or weed control at 140 g/ha', '95 to 100%');

Record request: pest or weed control at 140 g/ha value, item Nc1cc(-c2cc(F)c(Br)cc2F)nc(C(=O)O)c1Cl
95 to 100%

Can you look up the measured pest or weed control at 140 g/ha of Nc1cc(-c2ccc(Br)c(F)c2)nc(C(=O)O)c1Cl for me?
95 to 100%

Quick one: pest or weed control at 140 g/ha of C=Cc1c(C(=O)OC)nc(-c2ccc(C(F)(F)F)c(F)c2)c(F)c1N ?
45 to 59%

Look at this compound and give its reported pest or weed control at 140 g/ha. C=Cc1c(N)nc(-c2ccc(C#N)cc2F)nc1C(=O)O
0 to 29%

Need pest or weed control at 140 g/ha, item C=Cc1c(C(=O)OC)nc(-c2ccc(C#N)cc2)c(F)c1N
0 to 29%

Can you share its pest or weed control at 140 g/ha? I mean this compound: COC(=O)c1nc(-c2cc(F)c(Br)cc2F)cc(N)c1Cl
95 to 100%

Bench note: what pest or weed control at 140 g/ha did COC(=O)c1nc(-c2ccc(C(N)=O)cc2)c(F)c(N)c1Cl show?
0 to 29%

====

Consider the following compounds and their measured pest or weed control at 70 g/ha readings.
- System: TRZSS: wheat, including spring and winter (Triticum aestivum)
- method-description: Post-emergent Test III, herbicidal activity in wheat and barley
- Type: in vivo
- details: Triticum aestivum, post-emergence, 504 h; Table 9; 70 g ai/ha; post-emergent; 21 d; read-out: Visual Growth Reduction (%) 21 Days After Application TRZSS

INSERT INTO measurements (compound, property, endpoint_result) VALUES
  ('Nc1c(Cl)c(C(=O)O)nc(-c2ccc(Br)cc2)c1Cl [Compound 125]', 'pest or weed control at 70 g/ha', '75 to 84%');

pest or weed control at 70 g/ha lookup needed for COC(=O)c1nc(-c2cc(F)c(Br)cc2F)c(F)c(N)c1Cl [Compound 51] , thanks.
95 to 100%

If you can, please state the reported pest or weed control at 70 g/ha value of Nc1c(Cl)c(C(=O)O)nc(-c2ccc(C(F)(F)F)c(F)c2)c1Cl [Compound 146] .
85 to 94%

Given the entry C=Cc1c(C(=O)O)nc(-c2ccc(C#N)cc2)c(F)c1N [Compound 150] , report its measured pest or weed control at 70 g/ha.
60 to 74%

====

- Test system: Key Grass and Sedge Weeds as well as Grass Crops
- method-description: Post-emergent Test II herbicidal activity (Table 6)
- Assay type: in vivo
- details: Triticum aestivum, post-emergence, 336 h, TRZSS (wheat), application rate 140 g ai/ha, read-out: Visual Growth Reduction (%) 14 Days After Application, TRZSS
pest or weed control at 140 g/ha by entry:

Here is how some compounds turned out for pest or weed control at 140 g/ha.
INSERT INTO results (smiles_str, target_of_assay, endpoint_result) VALUES
  ('C=Cc1c(C(=O)OC)nc(-c2ccc(C(F)(F)F)c(F)c2)c(F)c1N', 'Key Grass and Sedge Weeds as well as Grass Crops', '0 to 29%'),
  ('C#Cc1ccc(-c2cc(N)c(Cl)c(C(=O)O)n2)cc1', 'Key Grass and Sedge Weeds as well as Grass Crops', '30 to 44%'),
  ('Nc1c(F)c(-c2cc(F)c(I)cc2F)nc(C(=O)O)c1Cl', 'Key Grass and Sedge Weeds as well as Grass Crops', '85 to 94%');

State the recorded pest or weed control at 140 g/ha for this entry: C=Cc1c(C(=O)OC)nc(-c2ccc(C#N)cc2)c(F)c1N
0 to 29%

====

Below, each entry is listed alongside its reported pest or weed control at 70 g/ha.
- System: Key Broadleaf Weed and Crop Species
- method-description: Post-emergent Test II herbicidal activity (Table 5)
- Type: in vivo
- details: post-emergence, 336 h; HELAN: sunflower (Helianthus annuus); application rate 70 g ai/ha; 14 days after application; read-out: Visual Growth Reduction (%) 14 Days After Application, HELAN

INSERT INTO results (smiles_str, endpoint_result) VALUES
  ('COC(=O)c1nc(-c2ccc(C#N)c(F)c2F)c(F)c(N)c1Cl', '85 to 94%');

# get_value(readout='pest or weed control at 70 g/ha', item= COC(=O)c1nc(-c2ccc([N+](=O)[O-])cc2)c(F)c(N)c1Cl )
95 to 100%

Fill in the blank: the reported pest or weed control at 70 g/ha of COC(=O)c1nc(-c2ccc(C(F)(F)F)c(F)c2)cc(N)c1Cl is ____.
85 to 94%

I would be grateful if you could share the reported pest or weed control at 70 g/ha for COC(=O)c1nc(-c2ccc(F)cc2)c(F)c(N)c1Cl .
95 to 100%

For COC(=O)c1nc(-c2ccc(C#N)cc2F)cc(N)c1Cl , what is its reported pest or weed control at 70 g/ha?
95 to 100%

Which pest or weed control at 70 g/ha is listed for Nc1cc(-c2ccc(C(F)(F)F)c(F)c2F)nc(C(=O)O)c1Cl ?
95 to 100%

May I ask what pest or weed control at 70 g/ha has been recorded for COC(=O)c1ccc(-c2nc(C(=O)OC)c(Cl)c(N)c2F)cc1 ?
0 to 29%

Recorded pest or weed control at 70 g/ha for COc1c(N)nc(-c2ccc(I)c(F)c2F)nc1C(=O)O , please?
95 to 100%

Need pest or weed control at 70 g/ha of COc1c(N)nc(-c2ccc(I)cc2)nc1C(=O)O , thanks.
85 to 94%
